Conditions: in methanol, 313 K
METRIC: solubility (mole fraction)
Write the value as a bare number.

Quote solubility (mole fraction) reported for CC(=O)N1CN(C(C)=O)CN(C(C)=O)C1 please.
0.335

---

Conditions: in methanol, 298 K
METRIC: solubility (mole fraction)

Kindly indicate its recorded solubility (mole fraction). Item: CC(=O)N1CN(C(C)=O)CN(C(C)=O)C1
0.204

---

Conditions: in acetonitrile, 303 K
METRIC: solubility (mole fraction)
// no unit string in output, number only

Give the reported solubility (mole fraction) for this compound. CC(=O)N1CN(C(C)=O)CN(C(C)=O)C1
0.0695

---

Conditions: in acetonitrile, 298 K
METRIC: solubility (mole fraction)

Assign solubility (mole fraction) to the following record: CC(=O)N1CN(C(C)=O)CN(C(C)=O)C1
0.0478

---

Settings: in water, 308 K
METRIC: solubility (mole fraction)
Kindly provide the number alone.

Name the recorded solubility (mole fraction) of the compound listed here: CC(=O)N1CN(C(C)=O)CN(C(C)=O)C1
0.0085

---

Settings: in ethyl acetate, 308 K
METRIC: solubility (mole fraction)
Give the value as a plain number.

Given CC(=O)N1CN(C(C)=O)CN(C(C)=O)C1 , respond with its solubility (mole fraction).
0.0198

---

Settings: in acetonitrile, 313 K
METRIC: solubility (mole fraction)
I'd appreciate a reply containing only the number, no unit.

Quote solubility (mole fraction) reported for CC(=O)N1CN(C(C)=O)CN(C(C)=O)C1 please.
0.142

---

Conditions: in ethyl acetate, 298 K
METRIC: solubility (mole fraction)
When you answer, write just the number.

Give recorded solubility (mole fraction). CC(=O)N1CN(C(C)=O)CN(C(C)=O)C1
0.0153

---

Conditions: in ethyl acetate, 303 K
METRIC: solubility (mole fraction)
Form: value (number only, do not type unit).

Provide measured solubility (mole fraction) value, entry: CC(=O)N1CN(C(C)=O)CN(C(C)=O)C1
0.0178

---

Settings: in water, 313 K
METRIC: solubility (mole fraction)
Just the number, please, no unit after it.

For the compound CC(=O)N1CN(C(C)=O)CN(C(C)=O)C1 , report solubility (mole fraction).
0.0125

---

Conditions: in ethyl acetate, 318 K
METRIC: solubility (mole fraction)
Please state the value as a number alone, without comment.

Output solubility (mole fraction) of CC(=O)N1CN(C(C)=O)CN(C(C)=O)C1
0.0271

---

Details: in water, 318 K
METRIC: solubility (mole fraction)
Write the number on its own, no unit after it.

Input CC(=O)N1CN(C(C)=O)CN(C(C)=O)C1 , output reported solubility (mole fraction).
0.018

---

Settings: in methanol, 308 K
METRIC: solubility (mole fraction)
Just the number, please, no unit attached.

Tell me its solubility (mole fraction) given CC(=O)N1CN(C(C)=O)CN(C(C)=O)C1 as the entry.
0.283
